- system: Glc(b1-6)Glc
- methodDescription: glycan array binding signal (z-score within array); higher = stronger binding
- conditionContext: glycan notation: IUPAC condensed, linker removed
The full list was thinned out, with the strongest signals kept by preference.
quantityMeasured: glycan array binding signal (z-score)
// return a plain number; no unit text

SGC, Q9M345 (protein) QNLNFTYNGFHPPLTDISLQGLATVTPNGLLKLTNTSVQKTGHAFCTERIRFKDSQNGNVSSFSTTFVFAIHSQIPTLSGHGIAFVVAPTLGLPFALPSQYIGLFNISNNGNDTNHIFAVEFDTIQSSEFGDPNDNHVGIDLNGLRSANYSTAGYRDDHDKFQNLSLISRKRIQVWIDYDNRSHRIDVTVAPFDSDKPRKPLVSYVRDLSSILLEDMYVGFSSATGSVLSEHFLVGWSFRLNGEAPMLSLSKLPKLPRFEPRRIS	-0.344

So for CCL1 (Coprinopsis cinerea) (protein) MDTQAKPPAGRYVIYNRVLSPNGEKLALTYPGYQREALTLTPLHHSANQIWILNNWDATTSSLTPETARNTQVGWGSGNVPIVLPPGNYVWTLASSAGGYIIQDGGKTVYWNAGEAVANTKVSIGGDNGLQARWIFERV , the logged glycan array binding signal (z-score) turned out to be -0.128

So for ZG16p (Homo sapiens), O60844 (protein) ARSSSYSGEYGGGGGKRFSHSGNQLDGPITALRVRVNTYYIVGLQVRYGKVWSDYVGGRNGDLEEIFLHPGESVIQVSGKYKWYLKKLLFVTDKGRYLSFGKDSGTSFNAVPLHPNTVLRFISGRSGSLIDAIGLHWDVYPSSCSRC , the logged glycan array binding signal (z-score) turned out to be 2.7

So for CD34 (Homo sapiens), P28906 (protein) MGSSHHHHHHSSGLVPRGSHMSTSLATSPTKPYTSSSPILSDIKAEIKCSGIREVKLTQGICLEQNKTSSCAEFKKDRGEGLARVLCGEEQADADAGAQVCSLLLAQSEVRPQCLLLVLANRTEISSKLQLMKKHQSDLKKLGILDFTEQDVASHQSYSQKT , the logged glycan array binding signal (z-score) turned out to be -1.19

So for MGL2 (Mus musculus), Q8JZN1 (protein) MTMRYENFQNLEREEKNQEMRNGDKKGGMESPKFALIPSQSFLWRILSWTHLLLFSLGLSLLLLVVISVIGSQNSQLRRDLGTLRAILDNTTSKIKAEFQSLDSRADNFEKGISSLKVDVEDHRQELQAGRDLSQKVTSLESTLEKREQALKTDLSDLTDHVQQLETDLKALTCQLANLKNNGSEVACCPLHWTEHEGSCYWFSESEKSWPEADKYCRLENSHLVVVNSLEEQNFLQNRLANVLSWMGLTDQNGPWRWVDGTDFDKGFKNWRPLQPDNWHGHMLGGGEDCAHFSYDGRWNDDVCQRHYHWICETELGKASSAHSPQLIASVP , the logged glycan array binding signal (z-score) turned out to be -0.253

So for OVGAL11 (Ovis aries), AAF64320 (protein) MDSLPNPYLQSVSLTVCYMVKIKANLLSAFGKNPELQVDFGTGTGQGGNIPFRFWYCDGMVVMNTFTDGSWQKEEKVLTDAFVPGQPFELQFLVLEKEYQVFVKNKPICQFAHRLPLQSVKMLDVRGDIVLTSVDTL , the logged glycan array binding signal (z-score) turned out to be 0.568

So for Hip/Pap (Homo sapiens), Q06141 (protein) MLPPMALPSVSWMLLSCLMLLSQVQGEEPQRELPSARIRCPKGSKAYGSHCYALFLSPKSWTDADLACQKRPSGNLVSVLSGAEGSFVSSLVKSIGNSYSYVWIGLHDPTQGTEPNGEGWEWSSSDVMNYFAWERNPSTISSPGHCASLSRSTAFLRWKDYNCNVRLPYVCKFTD , the logged glycan array binding signal (z-score) turned out to be 0.091
